Data origin, for the record: patent US20250235543A1

- target.of.assay: CDK4 (Homo sapiens, UniProt P11802)
- Construct: endogenous in cells; host or cells: Calu-1
- Sequence (P11802 2-303 limits assumed): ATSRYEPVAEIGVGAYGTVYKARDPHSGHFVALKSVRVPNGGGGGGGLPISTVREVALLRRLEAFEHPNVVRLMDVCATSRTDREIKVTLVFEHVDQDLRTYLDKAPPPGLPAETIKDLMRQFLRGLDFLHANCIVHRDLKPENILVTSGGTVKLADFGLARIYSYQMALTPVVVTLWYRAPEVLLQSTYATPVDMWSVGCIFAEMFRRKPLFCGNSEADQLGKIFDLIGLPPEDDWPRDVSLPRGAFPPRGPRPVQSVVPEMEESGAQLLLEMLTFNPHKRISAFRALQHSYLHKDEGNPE
- Sequence (P24385 whole entry partner): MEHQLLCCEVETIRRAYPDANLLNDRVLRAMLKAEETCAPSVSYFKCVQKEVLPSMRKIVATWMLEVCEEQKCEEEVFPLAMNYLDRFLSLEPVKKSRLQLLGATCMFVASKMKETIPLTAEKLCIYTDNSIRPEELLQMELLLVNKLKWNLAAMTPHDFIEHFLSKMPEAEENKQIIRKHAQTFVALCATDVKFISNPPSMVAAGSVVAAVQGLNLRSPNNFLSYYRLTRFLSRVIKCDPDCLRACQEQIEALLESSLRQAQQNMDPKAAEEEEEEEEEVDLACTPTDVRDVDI
- Sequence (Q16531 2-1140 limits assumed, further chain): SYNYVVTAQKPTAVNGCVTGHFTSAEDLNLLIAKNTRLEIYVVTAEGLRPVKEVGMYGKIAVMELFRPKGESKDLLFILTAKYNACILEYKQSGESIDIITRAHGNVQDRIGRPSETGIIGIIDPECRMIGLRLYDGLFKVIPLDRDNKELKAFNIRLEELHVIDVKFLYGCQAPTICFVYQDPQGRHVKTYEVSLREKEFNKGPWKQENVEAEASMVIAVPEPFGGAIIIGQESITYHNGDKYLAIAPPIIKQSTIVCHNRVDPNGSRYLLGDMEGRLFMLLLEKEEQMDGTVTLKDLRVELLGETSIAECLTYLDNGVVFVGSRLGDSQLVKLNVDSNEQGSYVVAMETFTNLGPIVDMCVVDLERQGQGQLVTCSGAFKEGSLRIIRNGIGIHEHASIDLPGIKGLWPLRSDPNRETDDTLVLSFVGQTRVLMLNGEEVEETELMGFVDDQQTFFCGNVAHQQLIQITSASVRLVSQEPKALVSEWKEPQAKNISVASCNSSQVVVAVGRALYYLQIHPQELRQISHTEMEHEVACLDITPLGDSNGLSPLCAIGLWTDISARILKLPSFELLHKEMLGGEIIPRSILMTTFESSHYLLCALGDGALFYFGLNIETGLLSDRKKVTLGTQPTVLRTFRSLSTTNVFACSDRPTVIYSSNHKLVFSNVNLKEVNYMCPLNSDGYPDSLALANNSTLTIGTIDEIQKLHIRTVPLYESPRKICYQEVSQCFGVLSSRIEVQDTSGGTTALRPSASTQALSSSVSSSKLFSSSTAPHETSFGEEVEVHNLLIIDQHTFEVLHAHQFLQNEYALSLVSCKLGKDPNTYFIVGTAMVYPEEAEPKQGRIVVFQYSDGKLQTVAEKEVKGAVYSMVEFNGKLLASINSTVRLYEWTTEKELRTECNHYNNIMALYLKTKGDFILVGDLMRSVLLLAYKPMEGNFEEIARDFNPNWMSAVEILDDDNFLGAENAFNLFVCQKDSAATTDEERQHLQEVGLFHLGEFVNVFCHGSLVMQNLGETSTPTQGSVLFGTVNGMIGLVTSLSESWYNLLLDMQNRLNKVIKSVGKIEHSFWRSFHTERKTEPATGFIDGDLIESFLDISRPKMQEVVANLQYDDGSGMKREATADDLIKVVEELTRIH
- protocol.text: CDK4 percentage degradation in Calu-1 cells (immunoblotting)
- Format: cell-based
- protocol.conditions: Calu-1 cells, 200 nM, 16 hours; read-out: CDK4 Degradation (200 nM)
Each record here notes measured inhibition at 0.2 µM.

# smiles.input, target.of.assay, inhibition at 0.2 µM
rows = [
    ("CC(=O)c1c(C)c2cnc(Nc3ccc(N4CCN(CC(=O)NCCOCCOCCC(=O)Nc5cc(F)ccc5C(=O)Nc5nc(C)c(C)s5)CC4)cn3)nc2n(C2CCCC2)c1=O", "CDK4 (Homo sapiens, UniProt P11802)", "> 80%"),
    ("CC(=O)c1c(C)c2cnc(Nc3ccc(N4CCN(CC(=O)NCCCCCNc5cc(F)ccc5C(=O)Nc5ccc(N(C)C)nn5)CC4)cn3)nc2n(C2CCCC2)c1=O", "CDK4 (Homo sapiens, UniProt P11802)", "50 to 80%"),
    ("CC(=O)c1c(C)c2cnc(Nc3ccc(N4CCN(CC(=O)NCCOCCOCCC(=O)Nc5ccccc5C(=O)Nc5cn(C)cn5)CC4)cn3)nc2n(C2CCCC2)c1=O", "CDK4 (Homo sapiens, UniProt P11802)", "< 30%"),
    ("CNc1ccc(C(=O)Nc2ccc(C)cn2)c(NC(=O)CCOCCOCCNC(=O)CN2CCN(c3ccc(Nc4ncc5c(C)c(C(C)=O)c(=O)n(C6CCCC6)c5n4)nc3)CC2)c1", "CDK4 (Homo sapiens, UniProt P11802)", "> 80%"),
    ("CC(=O)c1c(C)c2cnc(Nc3ccc(N4CCN(CC(=O)NCCOCCOCCCNc5ccccc5C(=O)Nc5nc(C)c(C)s5)CC4)cn3)nc2n(C2CCCC2)c1=O", "CDK4 (Homo sapiens, UniProt P11802)", "50 to 80%"),
]
